biological target: DOP-R1 (Rattus norvegicus); assay: TAN67-stimulated [35S]GTPγS binding in rat brain membranes; format: biochemical; conditions: read-out: Mean (± SEM) EC50 for TAN67 Stimulation, Striatum; striatal membranes, ethanol-trained rats, SoRI-9409-vehicle/Yohimbine (2 mg/kg I.P.)
Sequence (P33533 whole entry): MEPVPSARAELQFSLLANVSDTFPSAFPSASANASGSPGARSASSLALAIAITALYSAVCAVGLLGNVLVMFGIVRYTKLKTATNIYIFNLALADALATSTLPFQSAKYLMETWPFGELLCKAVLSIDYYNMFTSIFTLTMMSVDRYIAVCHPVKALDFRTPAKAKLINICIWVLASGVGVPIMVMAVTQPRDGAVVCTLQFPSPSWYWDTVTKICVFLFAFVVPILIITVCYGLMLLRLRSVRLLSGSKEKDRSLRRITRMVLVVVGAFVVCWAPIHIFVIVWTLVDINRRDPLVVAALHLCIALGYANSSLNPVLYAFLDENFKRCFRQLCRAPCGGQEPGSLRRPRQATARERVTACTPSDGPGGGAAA
quantity kind: EC50

>>> result("Br.Br.CN1CC[C@]2(c3cccc(O)c3)Cc3nc4ccccc4cc3C[C@H]2C1 [TAN67, SB 205607 dihydrobromide]")
"> 100 µM"

###

molecular target: DOP-R1 (Rattus norvegicus); experiment: Inhibition of TAN67-; assay type: biochemical
Structures can show the parent of a compound that is named as a salt.
quantity kind: IC50 (nM)

>>> numeric_readout("Oc1ccc2c3c1O[C@H]1c4[nH]c5ccccc5c4C[C@@]4(O)[C@@H](C2)N(CC2CC2)CC[C@]314 [naltrindole, naltrindole hydrochloride]")
46
